Where do these numbers come from? They come from patent US4236010A.

Assay: "Pole Climbing" test (rat)
Format: in vivo
Conditions: Rattus norvegicus, ip, 6 h; read-out: Pole-Climbing BCR (Block of Conditioned Reflex) ED50 i.p.
Structures can show the parent of a compound that is named as a salt.
outcome measure: log10(ED50) (log10 of the value in mg/kg)
Hello, just confirming the data are log10 of ED50 with units of mg/kg.

compound	readout value
CC(C)(C)[C@]1(O)CCN2C[C@@H](c3ccc(Cl)cc3Cl)CC[C@@H]2C1	0.67
O=c1[nH]c2cc(C(F)(F)F)ccc2n1[C@@H]1CCN2C[C@@H](c3ccccc3Cl)CC[C@@H]2C1 (relative stereo) [HCl]	-0.68
CC(C)(C)[C@]1(O)CCN2C[C@@H](c3ccc(Cl)cc3Cl)CC[C@@H]2C1 (relative stereo) [HCl]	0.81

q: Requested read-out: log10(ED50). Entry: Cc1cc2[nH]c(=O)n([C@@H]3CCN4C[C@@H](c5ccccc5Cl)CC[C@@H]4C3)c2cc1C (relative stereo) [HCl]
a: 0.24

q: // next record O=c1[nH]c2cc(Cl)ccc2n1[C@@H]1CCN2C[C@@H](c3ccccc3F)CC[C@@H]2C1 (relative stereo) [HCl]
a: -1.19
